- Target Desc: human somatostatin receptor subtype 2 (Homo sapiens)
- Construct: expressed in transfected cells
- Sequence (P30874 whole entry): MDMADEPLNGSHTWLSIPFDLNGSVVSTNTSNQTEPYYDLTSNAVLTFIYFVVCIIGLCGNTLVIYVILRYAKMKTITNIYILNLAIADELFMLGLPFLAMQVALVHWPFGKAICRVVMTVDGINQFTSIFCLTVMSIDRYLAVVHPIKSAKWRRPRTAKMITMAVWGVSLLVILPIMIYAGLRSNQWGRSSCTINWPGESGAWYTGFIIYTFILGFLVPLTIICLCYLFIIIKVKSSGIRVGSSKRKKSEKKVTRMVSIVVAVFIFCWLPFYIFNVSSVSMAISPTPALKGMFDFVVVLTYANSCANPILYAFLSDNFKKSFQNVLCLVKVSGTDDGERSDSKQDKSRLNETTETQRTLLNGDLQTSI
- Method Summary: Functional assay for SSTR2 agonists (HTRF cAMP)
- Format: cell-based
- Condition Details: CHO-K1 cells stably expressing human SST2; NKH477-stimulated cAMP; 20 min at 37 C; read-out: hSST2 cAMP Avg EC50
Outcome Measure: EC50 (nM)
Please respond with the number in nM and leave the unit unwritten.

{"columns": ["Compound", "EC50 (nM)"],
 "data": [
  ["CC[C@H](C)[C@@H]([C@@H](CC(=O)N1CCC[C@H]1[C@H](OC)[C@@H](C)C(=O)N[C@H](C)[C@@H](O)c1ccccc1)OC)N(C)C(=O)[C@@H](NC(=O)[C@H](C(C)C)N(C)C(=O)OCc1ccc(NC(=O)[C@H](CCCNC(N)=O)NC(=O)[C@@H](NC(=O)CCOCCC(=O)NCCNc2ncc(-c3cc(C)cc(F)c3)c(N3CCC(N)CC3)c2-c2nc3ccc(Cl)cc3[nH]2)C(C)C)c(O[C@@H]2O[C@H](C(=O)NCCNC(=O)CCOCCOCCOCCOCCC(=O)O)[C@@H](O)[C@H](O)[C@H]2O)c1)C(C)C [Compound 52]", 0.14]
]}

Now look at this one.
QUERY: Give its EC50 value. Item: CC[C@H](C)[C@@H]([C@@H](CC(=O)N1CCC[C@H]1[C@H](OC)[C@@H](C)C(=O)N[C@H](C)[C@@H](O)c1ccccc1)OC)N(C)C(=O)[C@@H](NC(=O)[C@H](C(C)C)N(C)C(=O)OCc1ccc(NC(=O)[C@H](CCCNC(N)=O)NC(=O)[C@@H](NC(=O)CCOCCOCCOCCOCCC(=O)NCCNc2ncc(-c3cc(C)cc(F)c3)c(N3CCC(N)CC3)c2-c2nc3ccc(Cl)cc3[nH]2)C(C)C)cc1C(=O)N1CC(C(=O)O)C1)C(C)C [Compound 67]
RESULT: 0.086
